Test system: DU-145 prostate
ASSAY DETAILS: NCI tumour cell line growth inhibition, 48 h
PARAMETER: TGI

# example entries with known answers
Cc1ccc(C(=O)NC2CCCCC2)cc1-c1ccc(C(=O)NCC2CC2)cc1: > 25 µM
CC(Oc1ccc(Cl)cc1Cl)C(=O)NN1C(=O)CSC1c1ccc(Cl)cc1 (stereo not given): > 100 µM
Cc1ncc([N+](=O)[O-])n1CCNC(=O)CCn1ccnc1[N+](=O)[O-]: > 100 µM
O=c1[nH]n(Cc2ccccc2CCl)c2ccc([N+](=O)[O-])cc12: > 100 µM
O=C(/C=C\Sc1nccc(C(F)(F)F)n1)c1ccc(Br)cc1: 47.9 µM
COc1cc2c3c(c4cc(OC)c(OC)cc4c2cc1OC)[C@H](O)[C@@H]1CCCN1C3: 1.45 µM
CCn1c(SCC(=O)NNC(=S)Nc2ccc(F)cc2)nc2ccccc2c1=O: > 100 µM
COc1cc(/C=C2\N=C(c3ccccc3)N(/N=C/c3cc4cc(C)ccc4nc3Cl)C2=O)cc(OC)c1OC: 80.6 µM

Find the recorded TGI belonging to COc1cc(/C=N/NC2=NCCCN2)ccc1O and report it.
> 100 µM

Find the recorded TGI belonging to C=C[C@]1(C)C=C2C(=O)[C@@]3(O)OC(=O)[C@@]4(CCCC(C)(C)[C@H]34)[C@@]2(O)CC1 and report it.
3.69 µM

---

System: LOX IMVI melanoma
ASSAY DETAILS: NCI tumour cell line growth inhibition, 48 h
Measured TGI of individual entries

# example entries with known answers
COc1ccc(OC)c2cc(C3(C)SCCCS3)ccc12: > 100 µM
COC(=O)C1=CC2OC1(C)C1(CC1)C2=O (centres undefined): 28.5 µM
CSC(=N)N1N=C2c3ccccc3CC[C@@H]2[C@@H]1c1ccccc1: 28.5 µM
CNC(=O)CN(CC(N)=O)C(=O)NC: > 100 µM

Find the recorded TGI belonging to COc1ccc(-c2nc(-c3nc4cc(C)c(C)cc4[nH]3)cc3c2[nH]c2ccccc23)cc1 and report it.
11.2 µM

Find the recorded TGI belonging to Cc1ccc2[nH]c(=O)c(C(C#N)c3ccccc3)nc2c1 (centres undefined) and report it.
> 100 µM

Find the recorded TGI belonging to COC(=O)N/N=C(\C)C(CN1CCOCC1)C(c1ccccc1)c1cc2ccccc2oc1=O (centres undefined) and report it.
> 100 µM

Find the recorded TGI belonging to COc1ccc(NC(C)=O)cc1N1C(=O)/C(=C\c2cc(OC)c(OC)c(OC)c2)S(=O)(=O)C1c1ccccc1 (centres undefined) and report it.
> 100 µM

Find the recorded TGI belonging to CCOC(=O)c1c(-c2ccccc2)[nH]c2ccc(Cl)cc2c1=O and report it.
> 100 µM

Find the recorded TGI belonging to C/C(=C/CNc1ncnc2c1ncn2CCC#N)CO and report it.
> 100 µM

Find the recorded TGI belonging to CCOC(=O)c1c(Cl)c2c(n1Cc1cc(OC)cc(OC)c1)-c1oncc1CCC2 and report it.
> 100 µM

Find the recorded TGI belonging to COC(=O)/C(=C/CC(N=C(c1ccccc1)c1ccccc1)C(=O)OC)N=C(c1ccccc1)c1ccccc1 (centres undefined) and report it.
> 100 µM

Find the recorded TGI belonging to NC(=S)N/N=C(/C(=O)Nc1nc2ccc([N+](=O)[O-])cc2s1)C1C(=O)NC(=S)NC1=O and report it.
> 100 µM

Find the recorded TGI belonging to CC1(C)OC(=O)CC12CCN(Cc1ccccc1)CC2 and report it.
> 100 µM

Find the recorded TGI belonging to Cc1ccc(NC(=O)c2ccnc(N3CCCC3)c2)cc1-c1ccc(C(=O)NCC2CC2)cc1 and report it.
> 25 µM

Find the recorded TGI belonging to C(/C=N/NC1=NCCCN1)=N\NC1=NCCCN1 and report it.
> 100 µM

Find the recorded TGI belonging to CC(C)N(c1cc2c(cc1F)c(=O)c(C(=O)O)cn2-c1ccc(N2CCN(C)CC2)cn1)C(C)C and report it.
> 100 µM

Find the recorded TGI belonging to Cc1cc2nc3c(C#N)c(-c4ccccc4)cc(Nc4ccc(F)cc4)n3c2cc1C and report it.
29 µM

Find the recorded TGI belonging to COC(=O)/C=C(\S/C(=C(/c1ccc(OC)cc1)n1cc(C(=O)OC)c(C(=O)OC)n1)c1ccc(OC)cc1)C(=O)OC and report it.
25.4 µM

---

Test system: ACHN renal
ASSAY DETAILS: NCI tumour cell line growth inhibition, 48 h
Measured TGI of individual entries

# example entries with known answers
COc1cc(/C=C2\N=C(c3ccccc3)N(/N=C/c3cc4cc(C)ccc4nc3Cl)C2=O)cc(OC)c1OC: > 100 µM
COC(=O)[C@]12CSC[C@H]1C[C@H](c1ccc(N(C)C)cc1)N2: > 100 µM

For the next question, use this molecule.
Find the recorded TGI belonging to COc1cc(C(=O)n2nc(N3CCN(C)CC3)c3cc(N)ccc32)cc(OC)c1OC and report it.
> 100 µM

---

Tested on: UACC-257 melanoma
ASSAY DETAILS: NCI tumour cell line growth inhibition, 48 h
Measured TGI of individual entries

Find the recorded TGI belonging to CCn1c(=O)c2c3ccc(O)cc3oc2c2ccc(O)cc21 and report it.
> 100 µM

Find the recorded TGI belonging to COC(=O)c1c(C(=O)OC)c(C(c2ccccc2)c2ccccc2)n(-c2ccccc2)c1Cl and report it.
> 10 µM

---

Measured TGI of individual entries
Tested on: MDA-MB-435
ASSAY DETAILS: NCI tumour cell line growth inhibition, 48 h

# example entries with known answers
O=C(O)CCSc1nnc(COc2ccc(Cl)cc2)n1-c1ccccc1: > 100 µM
C/C(=C\COP(=O)(O)OP(=O)(O)O)CC/C=C(\C)CNc1ccc([N+](=O)[O-])cc1: > 100 µM

Find the recorded TGI belonging to CO[C@H](c1ccccc1)[C@H](O)[C@](O)(c1ccccc1)P(=O)(OC)OC and report it.
> 100 µM

Find the recorded TGI belonging to NC(=S)N/N=C(/C(=O)Nc1nc2ccc([N+](=O)[O-])cc2s1)C1C(=O)NC(=S)NC1=O and report it.
> 100 µM

Find the recorded TGI belonging to Cc1ccc(C(=O)NC2CCCCC2)cc1-c1ccc(C(=O)NCC2CC2)cc1 and report it.
> 25 µM

Find the recorded TGI belonging to Nc1nccc(Nc2ccc(S(N)(=O)=O)cc2)n1 and report it.
> 100 µM

Find the recorded TGI belonging to CC1=[N+]([O-])C(C)(C)N(O)C1(C)C and report it.
> 100 µM

Find the recorded TGI belonging to CCOC(=O)c1c(-c2ccccc2)[nH]c2ccc(Cl)cc2c1=O and report it.
> 100 µM

Find the recorded TGI belonging to CC1=CCC[C@]2(C)C1=CC(=O)O[C@H]2c1ccoc1 and report it.
> 100 µM

---

Measured TGI of individual entries
Test system: 786-0 renal
ASSAY DETAILS: NCI tumour cell line growth inhibition, 48 h

# example entries with known answers
CCCC(=O)NNc1[nH]c(-c2ccc(OC)cc2)cc1C(=O)OCC: 34.9 µM
COc1ccc(/C=C/[N+](=O)[O-])cc1: > 100 µM
O=C(O)CCC1CCC(c2cc(F)ccc2F)(S(=O)(=O)c2ccc(Cl)cc2)CC1 (stereo not given): > 100 µM
Cc1ccc(S(=O)(=O)n2cc(C(=O)C(=O)Nc3ccncc3)c3ccccc32)cc1: > 73.2 µM
CCOC(=O)C1=C(C)N(NC(=O)c2ccccc2)C2(O)CCCC12C(=O)OCC (stereo not given): > 100 µM
C=CC1(c2ccc(Br)cc2)OCCCO1: > 100 µM
COC(=O)/C(C#N)=C(\Nc1ccccc1)N1CCCCC1: > 100 µM
O=C(C=Nc1ccccc1C(=O)[O-])c1cccs1.O=C(C=Nc1ccccc1C(=O)[O-])c1cccs1.[Cu+2]: > 100 µM
COc1ccc(OC)c2cc(C3(C)SCCCS3)ccc12: > 100 µM
CCCCc1ccc(N2C(=O)c3cccnc3S2(=O)=O)cc1: > 100 µM

Find the recorded TGI belonging to O=C(O)Cc1[nH]cnc1C(=O)O and report it.
> 100 µM

Find the recorded TGI belonging to CCOC(=O)c1c(Cl)c2c(n1Cc1cc(OC)cc(OC)c1)-c1oncc1CCC2 and report it.
> 71.4 µM

Find the recorded TGI belonging to CCC(=C(c1ccc(OCc2ccccc2)cc1)c1ccc(OCc2ccccc2)cc1)c1ccc(OC)cc1 and report it.
> 100 µM

Find the recorded TGI belonging to Cc1cc(C)nc(SC2=C(Nc3cccc(Cl)c3)C(=O)N(Cc3ccccc3)C2=O)n1 and report it.
> 170 µM

Find the recorded TGI belonging to COc1ccc(Nc2ccnc(NCCCNc3ccnc4cc(Cl)ccc34)n2)cc1 and report it.
2.93 µM
